We begin with a simple list: items and their reported protein stability index.
assay: protein stability index of a GFP-peptide fusion (yeast GPS) (PSI 1-4); higher = more stable; sorted into four equal gates, so the index is relative within each strain; details: san1∆
recorded endpoint: protein stability index

| polymer sequence | meas value |
| --- | --- |
| PDTSNEICDLAYQYVRA [SRB2] | 2.95 |
| FDTVSNKLFTEPIKLEP [YMR129W/POM152] | 2.64 |
| FNNEKETEKFALERNWP [RPN12] | 2.76 |
| FPNIAIRPTELRLPFSA [PRP8] | 1.93 |
| RENGKGGQIAHILFQNN [ROX3] | 2.75 |
| NLKGRPYTGWVDSKTKE [FAS2] | 3.11 |
| RSWTLTSEMKVLSIPPA [YGL100W/SEH1] | 2.37 |
